Sourced from paper PMC3724358

- measurement.target: Ht cyt c552 (Hydrogenobacter thermophilus cytochrome c552) (Hydrogenobacter thermophilus, UniProt P15452, M77A)
- Sequence (P15452 19-98 M77A): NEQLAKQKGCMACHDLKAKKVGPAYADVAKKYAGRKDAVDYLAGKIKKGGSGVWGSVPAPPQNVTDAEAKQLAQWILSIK
- test.protocol: protein film voltammetry titration, pyrolytic graphite edge electrode
- Format: binding
pKd: −log10 of the molar value.
measured.parameter: pKd

- c1c[nH]cn1: 3.12
